Kindly state % Cell growth for each of the entries shown.
- Tested on: 43 cancer cell lines and one normal cell line
- protocolSummary: In vitro cell viability assay (intracellular ATP, 72 hour)
- Type: cell-based
- assayContext: A375 (Skin); 10 μM
Unit % implied. Number only.

Requested read-out: % Cell growth. Entry: CC(C)=CCC[C@@H]1COc2c(C)cc(O)c3c2[C@H]1CC[C@H]3C [Compound 3, 5,18-epoxy-8-hydroxyserrulat-14-ene]
100

// same read-out, input: CC(C)=CCC[C@@H]1C(O)Oc2c(C)cc(O)c3c2[C@H]1CC[C@H]3C (stereo partly shown)
74

// same read-out, input: CC(C)=CCC[C@H](CO)[C@@H]1CC[C@@H](C)c2c1cc(C)c(O)c2O [Compound 1, 7,8,18-trihydroxyserrulat-14-ene]
−5

// same read-out, input: CC(C)=CCC[C@H](C)[C@@H]1CC[C@@H](C)c2c1cc(C)c(O)c2O [Compound 4, 7,8-dihydroxyserrulat-14-ene]
65

---

- Test system: 280 human cancer cell lines
- protocolSummary: OncoPanel cell proliferation assay (10-day)
- Assay type: cell-based
- assayContext: Homo sapiens, WiDr, Colon; read-out: Cell Count IC50
Kindly state IC50 for each of the entries shown.
Unit µM implied. Number only.

Requested read-out: IC50. Entry: CC(C)=CCC[C@@H]1C(O)Oc2c(C)cc(O)c3c2[C@H]1CC[C@H]3C (stereo partly drawn) [Compound 2, 5,18-epoxyserrulat-14-en-8,18-diol]
14.5

// same read-out, input: CC(C)=CCC[C@H](CO)[C@@H]1CC[C@@H](C)c2c1cc(C)c(O)c2O [Compound 1, 7,8,18-trihydroxyserrulat-14-ene]
2.32

// same read-out, input: CC(C)=CCC[C@H](C)[C@@H]1CC[C@@H](C)c2c1cc(C)c(O)c2O [Compound 4, 7,8-dihydroxyserrulat-14-ene]
12.8

---

- assaySystem: BRD2(1) (h) bromodomain (Homo sapiens, UniProt P25440)
- Construct: Bromodomain
- Sequence (P25440 74-180 limits assumed): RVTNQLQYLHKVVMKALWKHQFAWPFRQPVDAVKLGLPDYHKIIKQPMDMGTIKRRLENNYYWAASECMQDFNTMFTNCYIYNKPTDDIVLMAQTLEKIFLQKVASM
- protocolSummary: Epigenetic binding assay, Bromodomain
- assayContext: Table 9, inhibition/concentration-response curve
resultType: pIC50
# pIC50: negative log10 of molar concentration; output just the value

Requested read-out: pIC50. Entry: CC(C)=CCC[C@@H]1C(O)Oc2c(C)cc(O)c3c2[C@H]1CC[C@H]3C (stereo partly shown)
4.66

---

- Tested on: 280 human cancer cell lines
- protocolSummary: OncoPanel cell proliferation assay (10-day)
- Type: cell-based
- assayContext: Homo sapiens, ASPC1, AsPC-1, Pancreas; read-out: Cell Count IC50
resultType: pIC50
# pIC50: negative log10 of molar concentration; output just the value

Requested read-out: pIC50. Entry: CC(C)=CCC[C@H](C)[C@@H]1CC[C@@H](C)c2c1cc(C)c(O)c2O [Compound 4, 7,8-dihydroxyserrulat-14-ene]
4.83

// same read-out, input: CC(C)=CCC[C@H](CO)[C@@H]1CC[C@@H](C)c2c1cc(C)c(O)c2O [Compound 1, 7,8,18-trihydroxyserrulat-14-ene]
5.54

// same read-out, input: CC(C)=CCC[C@@H]1C(O)Oc2c(C)cc(O)c3c2[C@H]1CC[C@H]3C (stereo partly drawn) [Compound 2, 5,18-epoxyserrulat-14-en-8,18-diol]
4.85

---

- assaySystem: receptors (Bioprint panel)
- protocolSummary: biochemical
- Type: binding
- assayContext: GLUTAMATE CHANNELS PCP (antagonist radioligand); read-out: Reference Compound IC50
resultType: pIC50
# pIC50: negative log10 of molar concentration; output just the value

Requested read-out: pIC50. Entry: C[C@]12N[C@H](Cc3ccccc31)c1ccccc12
8.02

Just for reference, patent US11331299B2 is where these values come from.
